Recorded Molar enthalpy of transition or fusion values for a group of compounds are listed next.
- assaySummary: Molar enthalpy of transition or fusion
- protocolConditions: Crystal; DSC
Quick note: give the figure in kcal/mol, leave out the unit.

Solved entries (count: 5):
Cc1ccc[n+]([O-])c1 [3-picoline N-oxide]; 2.52
O=C(O)c1cccc[n+]1[O-] [picolinic acid N-oxide]; 7.21
[O-][n+]1ccccc1 [pyridine N-oxide]; 2.31
[O-][n+]1ccccc1S [2-mercaptopyridine N-oxide]; 3.18
O=C(O)c1cc[n+]([O-])cc1 [4-pyridinecarboxylic acid N-oxide]; 5.76

# input for lookup
Task: Please look up its Molar enthalpy of transition or fusion: Cc1cc(C)c[n+]([O-])c1 [3,5-dimethylpyridine N-oxide]
Result: 2.96

* * *

- assaySummary: Boiling temperature at pressure P
- protocolConditions: 94.4 kPa; Liquid; DSC
outcomeMeasure: Boiling temperature at pressure P (°C)
Quick note: give the figure in °C, leave out the unit.

Cc1ccc[n+]([O-])c1 [3-picoline N-oxide]; 283.80
Cc1cc(C)c[n+]([O-])c1 [3,5-dimethylpyridine N-oxide]; 291.70
Cc1cc[n+]([O-])cc1 [4-methylpyridine-N-oxide]; 287.30
O=C(O)c1cccc[n+]1[O-] [picolinic acid N-oxide]; 267.60

# input for lookup
Task: Please look up its Boiling temperature at pressure P: [O-][n+]1ccccc1 [pyridine N-oxide]
Result: 267.60
